study_system: metallo-β-lactamase NDM-1 (Klebsiella pneumoniae)
Construct: recombinant NDM-1, purified from the periplasmic fraction of E. coli BL21(DE3) (pET-NDM)
Sequence (C7C422 29-270 limits assumed): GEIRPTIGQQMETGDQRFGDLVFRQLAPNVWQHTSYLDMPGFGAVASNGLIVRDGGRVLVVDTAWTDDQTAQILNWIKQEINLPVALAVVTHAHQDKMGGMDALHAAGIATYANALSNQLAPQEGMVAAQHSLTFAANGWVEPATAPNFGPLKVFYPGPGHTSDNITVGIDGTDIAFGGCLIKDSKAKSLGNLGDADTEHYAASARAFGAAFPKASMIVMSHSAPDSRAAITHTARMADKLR
assay_overview: meropenem hydrolysis kinetics, Lineweaver–Burk (spectrophotometric, […] nm)
value_type: Ki (µM)

# compound, value_type, assay_value
measured = [
    ("O=S(=O)(O)CC(S)CS (stereo not shown) [compound 2, 2,3-dimercaptopropane-1-sulfonate]", "Ki", 16.7),
]
